Test system: Cynodon dactylon
ASSAY: Greenhouse selectivity testing ex. 6.1, turf grass plants in 1-leaf stage, % injury
TEST_PARAMETERS: Cynodon dactylon, in vivo, 7 days after application
MEASURED_ENDPOINT: Selectivity evaluation (% injury) 7 DAT on Cynodon dactylon (%)

                                   molecule  reported
0  CCOc1ccccc1OS(=O)(=O)NC(=O)Nc1nc(OC)cc(OC)n1         0
1  CCS(=O)(=O)c1cccnc1S(=O)(=O)NC(=O)Nc1nc(OC)cc(OC)n1 [Rimsulfuron, reference compound]        10
2  COc1cc(OC)n2nc(S(=O)(=O)Nc3c(Cl)ccc(C)c3Cl)nc2n1         0
3              Nc1c(Cl)c(F)nc(OCC(=O)O)c1Cl         0
